Overview of reported pKi across a group of compounds:
Target chain: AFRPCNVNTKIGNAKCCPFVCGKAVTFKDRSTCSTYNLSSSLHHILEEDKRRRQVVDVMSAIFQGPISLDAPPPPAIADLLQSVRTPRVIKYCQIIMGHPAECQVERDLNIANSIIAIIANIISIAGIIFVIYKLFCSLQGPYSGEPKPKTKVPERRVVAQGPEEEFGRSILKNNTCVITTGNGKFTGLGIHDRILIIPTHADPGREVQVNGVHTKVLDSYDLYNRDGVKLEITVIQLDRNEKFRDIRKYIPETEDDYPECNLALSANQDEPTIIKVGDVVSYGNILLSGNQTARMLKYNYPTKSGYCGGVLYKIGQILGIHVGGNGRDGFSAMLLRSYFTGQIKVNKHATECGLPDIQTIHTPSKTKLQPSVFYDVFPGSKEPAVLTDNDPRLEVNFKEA
pKi: −log10 of the molar value.
MEASURED_PROPERTY: pKi

[[record]]
compound = "NC(=O)c1ccc2c(c1)C(=O)C(=O)N2Cc1ccccc1"
measured_property = "pKi"
rel = "="
endpoint_result = 7.72

[[record]]
compound = "CN1C(=O)C(=O)c2ccccc21"
measured_property = "pKi"
rel = "<"
endpoint_result = 4.00

[[record]]
compound = "Cc1ccc(CN2C(=O)C(=O)c3cc(C(N)=O)ccc32)cc1C"
measured_property = "pKi"
rel = "="
endpoint_result = 8.22

[[record]]
compound = "COc1cccc(CN2C(=O)C(=O)c3cc(C(N)=O)ccc32)c1"
measured_property = "pKi"
rel = "="
endpoint_result = 7.54

[[record]]
compound = "CN1C(=O)C(=O)c2cc([N+](=O)[O-])ccc21"
measured_property = "pKi"
rel = "="
endpoint_result = 5.01

[[record]]
compound = "NC(=O)c1ccc2c(c1)C(=O)C(=O)N2Cc1cc(O)cc(O)c1"
measured_property = "pKi"
rel = "="
endpoint_result = 8.40

[[record]]
compound = "CN1C(=O)C(=O)c2cc(C(N)=S)ccc21"
measured_property = "pKi"
rel = "="
endpoint_result = 4.96

[[record]]
compound = "NC(=O)c1ccc2c(c1)C(=O)C(=O)N2Cc1ccc(-c2ccccc2)cc1"
measured_property = "pKi"
rel = "="
endpoint_result = 7.32

[[record]]
compound = "NC(=O)c1ccc2c(c1)C(=O)C(=O)N2CCCc1ccccc1"
measured_property = "pKi"
rel = "="
endpoint_result = 7.57

[[record]]
compound = "NC(=O)c1ccc2c(c1)C(=O)C(=O)N2Cc1ccc2cc(O)ccc2c1"
measured_property = "pKi"
rel = "="
endpoint_result = 8.40

[[record]]
compound = "CN(C)C(=O)c1ccc2c(c1)C(=O)C(=O)N2C"
measured_property = "pKi"
rel = "="
endpoint_result = 4.48

[[record]]
compound = "CN1C(=O)C(=O)c2cc(C(=O)O)ccc21"
measured_property = "pKi"
rel = "="
endpoint_result = 5.00

[[record]]
compound = "CN1C(=O)C(=O)c2cc(Cl)ccc21"
measured_property = "pKi"
rel = "="
endpoint_result = 4.23

[[record]]
compound = "COC(=O)c1ccc2c(c1)C(=O)C(=O)N2C"
measured_property = "pKi"
rel = "="
endpoint_result = 4.52

[[record]]
compound = "CNC(=O)c1ccc2c(c1)C(=O)C(=O)N2C"
measured_property = "pKi"
rel = "="
endpoint_result = 4.92

[[record]]
compound = "CN1C(=O)C(=O)c2cc(C#N)ccc21"
measured_property = "pKi"
rel = "="
endpoint_result = 4.29

[[record]]
compound = "COc1ccc2cc(CN3C(=O)C(=O)c4cc(C(N)=O)ccc43)ccc2c1"
measured_property = "pKi"
rel = "="
endpoint_result = 8.52

[[record]]
compound = "NC(=O)c1ccc2c(c1)C(=O)C(=O)N2Cc1cccc(O)c1"
measured_property = "pKi"
rel = "="
endpoint_result = 7.96

[[record]]
compound = "COc1cc(CN2C(=O)C(=O)c3cc(C(N)=O)ccc32)cc(OC)c1"
measured_property = "pKi"
rel = "="
endpoint_result = 7.60

[[record]]
compound = "CC(=O)c1ccc2c(c1)C(=O)C(=O)N2C"
measured_property = "pKi"
rel = "="
endpoint_result = 5.92

[[record]]
compound = "CN1C(=O)C(=O)c2cc([S+](C)[O-])ccc21 (centres undefined)"
measured_property = "pKi"
rel = "="
endpoint_result = 5.09

[[record]]
compound = "Cc1ccc(CN2C(=O)C(=O)c3cc(C(N)=O)ccc32)cc1"
measured_property = "pKi"
rel = "="
endpoint_result = 8.00

[[record]]
compound = "NC(=O)c1ccc2c(c1)C(=O)C(=O)N2Cc1ccc2ccccc2c1"
measured_property = "pKi"
rel = "="
endpoint_result = 8.40

[[record]]
compound = "CN1C(=O)C(=O)c2cc(I)ccc21"
measured_property = "pKi"
rel = "="
endpoint_result = 4.52

